Entries with reported MIC on Enterococcus faecalis X7501
Quick reminder: number only, in µg/mL, skip the unit.

{"compound": "O=CN(O)C[C@@H](CC1CCCC1)C(=O)N1NCC[C@H]1C(=O)Nc1ccncn1 [Example 59]", "units.of.measure": "µg/mL", "observed": 1}
{"compound": "O=CN(O)C[C@@H](CC1CCCC1)C(=O)N1N=CC[C@H]1C(=O)Nc1ccncn1 [Example 92]", "units.of.measure": "µg/mL", "observed": 1}
{"compound": "O=CN(O)C[C@@H](CC1CCCC1)C(=O)N1NCC[C@H]1C(=O)Nc1ncccn1 [Example 84]", "units.of.measure": "µg/mL", "observed": 16}
{"compound": "CN(C)Cc1nccc(NC(=O)[C@@H]2CCNN2C(=O)[C@H](CC2CCCC2)CN(O)C=O)n1 [Example 91]", "units.of.measure": "µg/mL", "observed": 16}

API: the following record is the query input.
// lookup MIC for O=CN(O)C[C@@H](CC1CCCC1)C(=O)N1NCC[C@H]1C(=O)Nc1cccc[n+]1[O-] [Example 45] 8

---

measurement.target: UniProt:P68826
Sequence (P68826 1-183): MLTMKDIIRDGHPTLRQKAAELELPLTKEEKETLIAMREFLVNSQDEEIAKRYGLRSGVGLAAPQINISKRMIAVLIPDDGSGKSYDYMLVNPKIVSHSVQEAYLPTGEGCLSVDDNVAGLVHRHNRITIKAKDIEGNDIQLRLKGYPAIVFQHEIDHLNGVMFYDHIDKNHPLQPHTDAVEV
assay: PDF IC50 Assay 1 (FDH-coupled, absorbance 340 nm)
Assay type: biochemical
condition.notes: Assay 1 conditions; read-out: IC50, S. aureus PDF activity
pIC50: −log10 of the molar value.
The entries below are paired with their reported pIC50.

{"molecule": "CCCCC[C@H](CN(O)C=O)C(=O)N1NCC[C@H]1C(=O)Nc1ccc(F)cn1 [Example 100]", "observed": "≥ 6.00"}

// lookup pIC50 for O=CN(O)C[C@@H](CC1CCCC1)C(=O)N1NCC[C@H]1C(=O)Nc1ccncn1 [Example 59] ≥ 6.00

---

Entries with reported MIC on Staphylococcus aureus Oxford
Quick reminder: number only, in µg/mL, skip the unit.

Worked cases, answers included:
{"chemical.smiles": "CN(C)Cc1nccc(NC(=O)[C@@H]2CCNN2C(=O)[C@H](CC2CCCC2)CN(O)C=O)n1", "MIC, µg/mL": 4}
{"chemical.smiles": "O=CN(O)C[C@@H](CC1CCCC1)C(=O)N1NCC[C@H]1C(=O)Nc1cccc[n+]1[O-]", "MIC, µg/mL": 1}
{"chemical.smiles": "O=CN(O)C[C@@H](CC1CCCC1)C(=O)N1NCC[C@H]1C(=O)Nc1ccncn1", "MIC, µg/mL": 0.5}
{"chemical.smiles": "O=CN(O)C[C@@H](CC1CCCC1)C(=O)N1N=CC[C@H]1C(=O)Nc1ccncn1", "MIC, µg/mL": 0.25}

API: the following record is the query input.
// lookup MIC for O=CN(O)C[C@@H](CC1CCCC1)C(=O)N1NCC[C@H]1C(=O)Nc1ncccn1 0.5

---

measurement.target: Haemophilus influenzae PDF (Haemophilus influenzae, UniProt P44786)
Sequence (P44786 whole entry): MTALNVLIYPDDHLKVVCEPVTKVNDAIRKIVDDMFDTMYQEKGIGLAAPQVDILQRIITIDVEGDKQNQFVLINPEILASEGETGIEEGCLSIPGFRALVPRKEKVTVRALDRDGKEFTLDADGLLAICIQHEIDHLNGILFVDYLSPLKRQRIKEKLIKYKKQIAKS
assay: PDF IC50 Assay 1 (FDH-coupled, absorbance 340 nm)
Type: biochemical
Experimental: Enzymatic activity of PDF was measured using a formate dehydrogenase (FDH)-coupled assay [Lazennec and Meinnel (1997) Anal. Biochem. 244, 180-182]. Once formate is released from methionine by PDF, it is oxidized by FDH thereby reducing one molecule of NAD to NADH and resulting in an increase in absorbance at 340 nm. Reactions were initiated by adding PDF to microtiter plates containing all other reaction components and were continuously monitored for 20 min at 25° C. […]
readout.type: IC50

{"chemical.smiles": "O=CN(O)C[C@@H](CC1CCCC1)C(=O)N1NCC[C@H]1C(=O)Nc1ccncn1", "IC50": "≤ 1000 nM"}

API: the following record is the query input.
// lookup IC50 for CCCCC[C@H](CN(O)C=O)C(=O)N1NCC[C@H]1C(=O)Nc1ccc(F)cn1 ≤ 1000 nM
